The reported measurements were obtained from patent US20260174739A1.

Assay: In vivo metabolism (pharmacokinetic) experiment in mice
Set-up: species or system male ICR mice
Details: male, ICR, mouse, po, 10 mg/kg, male ICR mice, oral 10 mg/kg, plasma, read-out: T1/2 (po) (converted)
Procedure: Animal: male ICR mice. The animals were randomly assigned to treatment groups and fasted for 12 h prior to dosing. Drug: the compound of the present disclosure was dissolved in a vehicle (5% DMSO+5% Solutol HS15+90% saline). […] Data analysis: drug concentrations below the lower limit of quantification (LLOQ) were considered zero. Pharmacokinetic parameters were analyzed using PK Solver with a non-compartmental, bolus injection or extravascular input analysis models. […]
endpointLabel: half-life

{"compound": "Nc1nc2c(s1)CC(N)(c1ccccc1)CC2 (racemic)", "endpointLabel": "half-life", "result": "4.68 h"}
{"compound": "O=C(O)c1cc2c(s1)CCC(c1ccccc1)(N1CCOCC1)C2 (racemic)", "endpointLabel": "half-life", "result": "2.6 h"}
{"compound": "CNC1(c2ccccc2)CCCc2sc(N)nc21 (racemic)", "endpointLabel": "half-life", "result": "1.8 h"}
{"compound": "CCCNC1(c2ccccc2)CCc2nc(N)sc2C1 (racemic)", "endpointLabel": "half-life", "result": "1.72 h"}
{"compound": "NC1(c2ccccc2)CCc2ncsc2C1 (racemic)", "endpointLabel": "half-life", "result": "1.5 h"}
{"compound": "CCNC1(c2ccccc2)CCc2nc(N)sc2C1 (racemic)", "endpointLabel": "half-life", "result": "2.43 h"}
{"compound": "Nc1nc2c(s1)CCCC2(N)c1ccccc1 (racemic)", "endpointLabel": "half-life", "result": "2.66 h"}
